Quick reference: composite z-score of the listed items.
# TEST_DETAILS: small-molecule binders of probe aNOTCH2, primary screen, biochemical, small-molecule microarray, 635/667 nm fluorescence (AID 1121);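 also: score merges feature fluorescence read at 667 nm with its signal to noise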
# APPLIED_CONDITIONS: higher = more signal

ITEM_SMILES	composite z-score
CC/C=C/C(=O)N(C[C@@H]1CCCO1)[C@@H]1CC(C(=O)NCCO)=C[C@H](Oc2c(I)cc(CO)cc2OC)[C@H]1O	-0.103
CC(=O)NCCCC[C@@H]1NC(=O)[C@H]2C[C@@H](C(=O)NCCCCCCN(C)C)[C@@H](c3cccc(OCCO)c3)N2C1=O	0.075
CCOC(=O)[C@H]1C/C=C/C[C@H](C(=O)OCC)C(=O)O[C@H]2[C@@H](OC)O[C@H](CO)[C@@H](OC(=O)Nc3ccc(Br)cc3)[C@@H]2OC1=O	-0.0863

From: PubChem BioAssay
